system: CCRIS mutagenicity, Ames/micronucleus/aberration tests; experiment: CCRIS mutagenicity studies; conditions: Test System: E. COLI; Strain/Indicator: WP2 UVRA (PKM101); Metabolic Activation: NONE; Method: STANDARD PLATE
Calls of active or inactive are those of the source. No rule for the calls is given here.
Outcomes: active, inactive

> print(dat)
                                   compound  class.assignment
1           NCCCNCCCCN(CCCN)/[N+]([O-])=N/O            active
2  CNCC(O)c1ccc(O)c(O)c1 (stereo not drawn)          inactive
3                             COP(=O)(OC)OC            active
4             C[n+]1ccc(-c2cc[n+](C)cc2)cc1          inactive
5                                        NN            active
6       CCn1cc(C(=O)O)c(=O)c2cc3c(cc21)OCO3            active
7                   O=c1[nH]cc(F)c(=O)[nH]1          inactive
8                                CC(C)(C)OO            active

====

test system: CCRIS mutagenicity, Ames/micronucleus/aberration tests; test: CCRIS mutagenicity studies; conditions: End Point: In vitro chromosomal aberrations; Test System: Chinese hamster lung (CHL/IU) cells; Metabolic Activation: Rat, Liver, S9, Phenobarbital and 5,6-benzoflavone
Activity calls are given as the source filed them. How the calls were made is not given here.
Outcomes: 1 = active, 0 = inactive

> print(dat)
                 molecular.string  class.assignment
1                           C=CCO                 1
2                    Oc1ccc(O)cc1                 1
3    O=[N+]([O-])c1ccc(Cl)c(Cl)c1                 1
4  O=C1C(Cl)=C(Cl)C(=O)C(Cl)=C1Cl                 1
5            c1ccc2cc3ccccc3cc2c1                 1
6               CC(C)[N+](=O)[O-]                 0

====

tested on: CCRIS mutagenicity, Ames/micronucleus/aberration tests; experiment: CCRIS mutagenicity studies; conditions: Test System: AMES SALMONELLA TYPHIMURIUM; Strain/Indicator: TA1537; Metabolic Activation: HAMSTER, LIVER, S-9, AROCLOR 1254 (10%); Method: PREINCUBATION
Activity calls are given as the source filed them. How the calls were made is not given here.
measure: mutagenic call

> print(dat)
                                    compound         measure      endpoint.value
 1                   CC(=O)OCc1ccc2c(c1)OCO2  mutagenic call  inactive; negative
 2  C=C(C)C1CC=C(C)C(O)C1 (stereo not given)  mutagenic call  inactive; negative
 3                Nc1ccc([N+](=O)[O-])c(N)c1  mutagenic call    active; positive
 4         CCCCNC(=O)n1c(NC(=O)OC)nc2ccccc21  mutagenic call  inactive; negative
 5                          C=C(C)C(=O)OCCCC  mutagenic call  inactive; negative
 6                          O=C1CCc2ccccc2O1  mutagenic call  inactive; negative
 7                               CCCCCC(N)=O  mutagenic call  inactive; negative
 8               CN(C)CCN(Cc1ccccc1)c1ccccc1  mutagenic call  inactive; negative
 9               CC(=O)/C=C/C1=C(C)CCCC1(C)C  mutagenic call  inactive; negative
10                     Nc1c2ccccc2nc2ccccc12  mutagenic call    active; positive
11          O=C(O)c1ccc(S(=O)(=O)N(Cl)Cl)cc1  mutagenic call  inactive; negative
12                                 Cl/C=C/Cl  mutagenic call  inactive; negative
13  CCCCC(CC)COC(=O)c1ccccc1C(=O)OCC(CC)CCCC (stereo not given)  mutagenic call  inactive; negative
14  Nc1ccn([C@@H]2O[C@H](CO)[C@@H](O)[C@@H]2O)c(=O)n1  mutagenic call  inactive; negative
15                           CC(=O)OCc1ccco1  mutagenic call  inactive; negative

====

system: CCRIS mutagenicity, Ames/micronucleus/aberration tests; test: CCRIS mutagenicity studies; settings: Test System: AMES SALMONELLA TYPHIMURIUM; Strain/Indicator: TA104; Metabolic Activation: NONE; Method: STANDARD PLATE
Calls of active or inactive are those of the source. How the calls were made is not given here.
Outcomes: t (active), f (inactive)

molecule	test.target	class.assignment
C[N+]1(C)CCOCC1	CCRIS mutagenicity, Ames/micronucleus/aberration tests	f
CNC(=O)Oc1ccc2c(c1)[C@]1(C)CCN(C)[C@@H]1N2C	CCRIS mutagenicity, Ames/micronucleus/aberration tests	f
CC[C@@]1(O)C[C@H](O[C@H]2C[C@H](N(C)C)[C@H](O[C@H]3C[C@H](O)[C@H](O[C@H]4CCC(=O)[C@H](C)O4)[C@H](C)O3)[C@H](C)O2)c2c(cc3c(c2O)C(=O)c2c(O)cccc2C3=O)[C@H]1C(=O)OC	CCRIS mutagenicity, Ames/micronucleus/aberration tests	t
COP(=O)(OC)C(O)C(Cl)(Cl)Cl (configuration not stated)	CCRIS mutagenicity, Ames/micronucleus/aberration tests	f
C#CCOCC[n+]1ccccc1/C=N/O	CCRIS mutagenicity, Ames/micronucleus/aberration tests	f
CN(C)S(=O)(=O)N(SC(F)(Cl)Cl)c1ccccc1	CCRIS mutagenicity, Ames/micronucleus/aberration tests	f
Br/C=C/Br	CCRIS mutagenicity, Ames/micronucleus/aberration tests	f

====

tested on: CCRIS mutagenicity, Ames/micronucleus/aberration tests; experiment: CCRIS mutagenicity studies; details: Test System: AMES SALMONELLA TYPHIMURIUM; Strain/Indicator: TA100; Metabolic Activation: S-9; Method: STANDARD PLATE
Active and inactive are the calls of the source. No rule for the calls is given here.
measure: mutagenic call

> print(dat)
                                    compound         measure      endpoint.value
 1  C[C@@H]1C[C@@]2(C)[C@@H](CC[C@@H]3[C@@H]2CC[C@]2(C)[C@@H](O)CC[C@@H]32)CC1=O  mutagenic call  inactive; negative
 2                                   c1ccoc1  mutagenic call  inactive; negative
 3  Nc1ccc(N(c2ccc3ccccc3c2)c2ccc3ccccc3c2)cc1  mutagenic call  inactive; negative
 4                                  CCCCON=O  mutagenic call    active; positive
 5                CCCC(=O)Nc1snc2ccc(Cl)cc12  mutagenic call  inactive; negative
 6                            O=Cc1ccc(CO)o1  mutagenic call    active; positive
 7  CCCCC(CC)COC(=O)c1ccccc1C(=O)OCC(CC)CCCC (stereo not drawn)  mutagenic call  inactive; negative
 8         CCCCNC(=O)n1c(NC(=O)OC)nc2ccccc21  mutagenic call  inactive; negative
 9                                    C=CC#N  mutagenic call  inactive; negative
10          CC(C)(C)c1ccc(-c2ccc(N=O)cc2)cc1  mutagenic call    active; positive
11                   O=c1[nH]cc(F)c(=O)[nH]1  mutagenic call  inactive; negative
12                  CCC(=O)Nc1snc2ccc(C)cc12  mutagenic call  inactive; negative
13  CN1C(=O)[C@]23CC4=CC=C[C@H](O)[C@H]4N2C(=O)[C@@]1(CO)SS3  mutagenic call  inactive; negative

====

tested on: CCRIS mutagenicity, Ames/micronucleus/aberration tests; experiment: CCRIS mutagenicity studies; conditions: Test System: AMES SALMONELLA TYPHIMURIUM; Strain/Indicator: TA1537; Metabolic Activation: HAMSTER, LIVER, S-9, AROCLOR 1254; Method: STANDARD PLATE
Activity calls are given as the source filed them. The rule behind the calls is not given here.
Outcomes: active, inactive

> print(dat)
                                    compound  class.assignment
 1                          c1ccc2c(c1)CCCC2          inactive
 2                           CC(C)N=C=NC(C)C          inactive
 3                           CSC(C)(C)/C=N/O          inactive
 4                       CC1=Nc2ccccc2C1(C)C          inactive
 5                        C=Cc1ccc(O)c(OC)c1          inactive
 6                                  CCCCON=O          inactive
 7                      c1ccc(NNc2ccccc2)cc1          inactive
 8                             CC(=O)OC(C)=O          inactive
 9           COc1cc(CNC(=O)CCCCCCC(C)C)ccc1O          inactive
10  O=C1CC(c2ccc(O)cc2)Oc2cc(O)cc(O)c21 (configuration not stated)          inactive
11              Cc1ccc2nc(-c3ccc(N)cc3)sc2c1            active
12                        [Cl][Fe]([Cl])[Cl]          inactive
13  CN1C[C@H](C(=O)N[C@]2(C)O[C@@]3(O)[C@@H]4CCCN4C(=O)[C@H](Cc4ccccc4)N3C2=O)C=C2c3cccc4[nH]cc(c34)C[C@H]21          inactive
14                                    COCCCN          inactive
15           CN(C)c1ccc(Cc2ccc(N(C)C)cc2)cc1          inactive
16                               CCCCCCCCC=O          inactive
17                                   c1cscn1          inactive
